Measured MIC, listed per entry for reference.
# Tested on: Staphylococcus aureus
# ASSAY NAME: Antibacterial activity against Staphylococcus aureus ATCC 29213 assessed as complete reduction in bacterial cell growth by CLSI protocol based broth liquid microdilution method
# Type: functional
Just the number please, in µg/mL, no unit attached.

As a guide, the following entries are already answered.
Look up MIC: CC(=O)NC[C@H]1CN(c2ccc(-c3ccc(/C=N/N4CCN(C(=O)c5ccccc5)CC4)nc3)c(F)c2)C(=O)O1 1

Look up MIC: CC(=O)NC[C@H]1CN(c2ccc(-c3ccc(/C=N/N4CCOCC4)nc3)c(F)c2)C(=O)O1 0.125

Look up MIC: CC(=O)NC[C@H]1CN(c2ccc(-c3ccc(/C=N/N4CCN(C)CC4)c(C)c3)c(F)c2)C(=O)O1 0.5

Look up MIC: CC(=O)NC[C@H]1CN(c2ccc(-c3ccc(/C=N/N4CCN(C)CC4)c(F)c3)c(F)c2)C(=O)O1 1

Look up MIC: COC(=O)N1CCN(/N=C/c2ccc(-c3ccc(N4C[C@H](CNC(C)=O)OC4=O)cc3F)cc2O)CC1 0.5

Look up MIC: CC(=O)NC[C@H]1CN(c2ccc(-c3ccc(/C=N/N4CCS(=O)(=O)CC4)c(O)c3)c(F)c2)C(=O)O1 0.125

Look up MIC: CC(=O)NC[C@H]1CN(c2ccc(-c3ccc(/C=N/N4CCS(=O)(=O)CC4)nc3)c(F)c2)C(=O)O1 0.125

Okay, next one:
Look up MIC: CC(=O)NC[C@H]1CN(c2ccc(-c3ccc(/C=N/N4CCN(C)CC4)c(C(F)(F)F)c3)c(F)c2)C(=O)O1 2

* * *

# ASSAY NAME: Stability in human liver microsomes assessed as compound remaining at 1.5 uM preincubated for 5 mins with NADPH and measured after 45 mins by LC/MS analysis
# Assay type: ADME, Microsome
# MEASUREMENT SETUP: liver microsomes, read-out: Stability
Measured remaining at 0.75 h, 1.5 µM, listed per entry for reference.
Just the number please, in %, no unit attached.

Look up remaining at 0.75 h, 1.5 µM: CC(=O)NC[C@H]1CN(c2ccc(-c3ccc(/C=N/N4CCS(=O)(=O)CC4)nc3)c(F)c2)C(=O)O1 93

---
Look up remaining at 0.75 h, 1.5 µM: CC(=O)NC[C@H]1CN(c2ccc(-c3ccc(/C=N/N4CCN(C)CC4)nc3)c(F)c2)C(=O)O1 74.9

* * *

# Tested on: Staphylococcus aureus
# ASSAY NAME: Antibacterial activity against methicillin-sensitive Staphylococcus aureus assessed as complete reduction in bacterial cell growth by CLSI protocol based broth liquid microdilution method
# Assay type: functional
READOUT LABEL: MIC (µg/mL)
Just the number please, in µg/mL, no unit attached.

As a guide, the following entries are already answered.
Look up MIC: COC(=O)N1CCN(/N=C/c2ccc(-c3ccc(N4C[C@H](CNC(C)=O)OC4=O)cc3F)cn2)CC1 2

Look up MIC: CC(=O)NC[C@H]1CN(c2ccc(-c3ccc(/C=N/N4CCOCC4)c(F)c3)c(F)c2)C(=O)O1 0.25

Look up MIC: CC(=O)NC[C@H]1CN(c2ccc(-c3ccc(/C=N/N4CCN(C)CC4)c(O)c3)c(F)c2)C(=O)O1 0.12

---
Look up MIC: CC(=O)NC[C@H]1CN(c2ccc(-c3ccc(/C=N/N4CCS(=O)(=O)CC4)c(O)c3)c(F)c2)C(=O)O1 0.25

Look up MIC: CC(=O)NC[C@H]1CN(c2ccc(-c3ccc(/C=N/N4CCSCC4)cn3)c(F)c2)C(=O)O1 2

Look up MIC: CC(=O)NC[C@H]1CN(c2ccc(-c3ccc(/C=N/N4CCOCC4)nc3)c(F)c2)C(=O)O1 0.25

Look up MIC: CC(=O)NC[C@H]1CN(c2ccc(-c3ccc(/C=N/N4CCN(C)CC4)nc3)c(F)c2)C(=O)O1 0.125

Look up MIC: CC(=O)NC[C@H]1CN(c2ccc(-c3ccc(/C=N/N4CC[S+]([O-])CC4)cn3)c(F)c2)C(=O)O1 2

* * *

# Test system: Staphylococcus aureus
# ASSAY NAME: Antibacterial activity against methicillin-sensitive Staphylococcus aureus assessed as complete reduction in bacterial cell growth by CLSI protocol based broth liquid microdilution method
# Type: functional
# label = YES if MIC < 1 µg/mL else NO

Please check: MIC for COc1cc(-c2ccc(N3C[C@H](CNC(C)=O)OC3=O)cc2F)ccc1/C=N/N1CCOCC1 , strictly under 1 µg/mL or not? NO

Please check: MIC for CCC(=O)N1CCN(/N=C/c2ccc(-c3ccc(N4C[C@H](CNC(C)=O)OC4=O)cc3F)cc2O)CC1 , strictly under 1 µg/mL or not? YES

Please check: MIC for CC(=O)NC[C@H]1CN(c2ccc(-c3ccc(/C=N/N4CCSCC4)c(O)c3)c(F)c2)C(=O)O1 , strictly under 1 µg/mL or not? YES

Please check: MIC for CC(=O)NC[C@H]1CN(c2ccc(-c3ccc(/C=N/N4CCSCC4)c(F)c3)c(F)c2)C(=O)O1 , strictly under 1 µg/mL or not? YES

Please check: MIC for CC(=O)NC[C@H]1CN(c2ccc(-c3ccc(/C=N/N4CCSCC4)c(C(F)(F)F)c3)c(F)c2)C(=O)O1 , strictly under 1 µg/mL or not? NO

Please check: MIC for COC(=O)N1CCN(/N=C/c2ccc(-c3ccc(N4C[C@H](CNC(C)=O)OC4=O)cc3F)cc2O)CC1 , strictly under 1 µg/mL or not? YES

* * *

Measured MIC, listed per entry for reference.
# Tested on: Enterococcus faecium
# ASSAY NAME: Antibacterial activity against vancomycin-resistant Enterococcus faecium assessed as complete reduction in bacterial cell growth by CLSI protocol based broth liquid microdilution method
# Assay type: functional
Just the number please, in µg/mL, no unit attached.

Identify the measured MIC of CC(=O)NC[C@H]1CN(c2ccc(-c3ccc(/C=N/N4CCN(C)CC4)c(F)c3)c(F)c2)C(=O)O1 for Enterococcus faecium. 1

Identify the measured MIC of CC(=O)NC[C@H]1CN(c2ccc(-c3ccc(/C=N/N4CCSCC4)c(C(F)(F)F)c3)c(F)c2)C(=O)O1 for Enterococcus faecium. 2

Identify the measured MIC of CC(=O)NC[C@H]1CN(c2ccc(-c3ccc(/C=N/N4CCOCC4)nc3)c(F)c2)C(=O)O1 for Enterococcus faecium. 0.25

---
Identify the measured MIC of CC(=O)NC[C@H]1CN(c2ccc(-c3ccc(/C=N/N4CCS(=O)(=O)CC4)c(O)c3)c(F)c2)C(=O)O1 for Enterococcus faecium. 0.25

Identify the measured MIC of CC(=O)NC[C@H]1CN(c2ccc(-c3ccc(/C=N/N4CCOCC4)c(O)c3)c(F)c2)C(=O)O1 for Enterococcus faecium. 0.25

Identify the measured MIC of CC(=O)NC[C@H]1CN(c2ccc(-c3ccc(/C=N/N4CCSCC4)c(O)c3)c(F)c2)C(=O)O1 for Enterococcus faecium. 0.125

Identify the measured MIC of CC(=O)NC[C@H]1CN(c2ccc(-c3ccc(/C=N/N4CCSCC4)cn3)c(F)c2)C(=O)O1 for Enterococcus faecium. 2

Identify the measured MIC of CC(=O)NC[C@H]1CN(c2ccc(-c3ccc(/C=N/N4CC[S+]([O-])CC4)cn3)c(F)c2)C(=O)O1 for Enterococcus faecium. 2

* * *

# Test system: Staphylococcus aureus
# ASSAY NAME: Antibacterial activity against Staphylococcus aureus ATCC 29213 assessed as complete reduction in bacterial cell growth by CLSI protocol based broth liquid microdilution method
# Type: functional
Measured log10(MIC), listed per entry for reference.
Scale: log10; quantity: MIC; unit before log: µg/mL

Look up log10(MIC): CCC(=O)N1CCN(/N=C/c2ccc(-c3ccc(N4C[C@H](CNC(C)=O)OC4=O)cc3F)cn2)CC1 0.00

Look up log10(MIC): CC(=O)NC[C@H]1CN(c2ccc(-c3ccc(/C=N/N4CCNCC4)cn3)c(F)c2)C(=O)O1 0.30

Look up log10(MIC): CC(=O)NC[C@H]1CN(c2ccc(-c3ccc(/C=N/N4CCN(C)CC4)nc3)c(F)c2)C(=O)O1 -0.90

Look up log10(MIC): CC(=O)NC[C@H]1CN(c2ccc(-c3ccc(/C=N/N4CCCCC4)c(F)c3)c(F)c2)C(=O)O1 -0.60

---
Look up log10(MIC): CC(=O)NC[C@H]1CN(c2ccc(-c3ccc(/C=N/N4CCNCC4)c(F)c3)c(F)c2)C(=O)O1 -0.30

* * *

# TEST TARGET: MAO-A (Homo sapiens)
# Sequence (P21397 whole entry): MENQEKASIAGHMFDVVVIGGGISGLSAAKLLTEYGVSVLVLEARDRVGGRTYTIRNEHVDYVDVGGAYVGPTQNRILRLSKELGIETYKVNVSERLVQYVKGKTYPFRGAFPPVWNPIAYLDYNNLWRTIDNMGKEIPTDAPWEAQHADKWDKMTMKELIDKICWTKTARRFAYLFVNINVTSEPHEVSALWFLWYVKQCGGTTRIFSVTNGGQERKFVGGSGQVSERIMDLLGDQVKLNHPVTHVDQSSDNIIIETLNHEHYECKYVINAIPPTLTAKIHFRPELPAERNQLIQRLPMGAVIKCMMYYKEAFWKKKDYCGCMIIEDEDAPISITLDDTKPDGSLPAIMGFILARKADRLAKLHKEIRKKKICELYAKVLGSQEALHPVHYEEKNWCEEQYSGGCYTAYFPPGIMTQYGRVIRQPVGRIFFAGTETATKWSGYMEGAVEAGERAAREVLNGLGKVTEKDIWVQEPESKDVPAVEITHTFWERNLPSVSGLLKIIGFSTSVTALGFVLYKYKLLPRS
# ASSAY NAME: Inhibition of recombinant human MAO-A (active motif 31502) at 30 uM using luciferin as substrate incubated for 15 mins followed by substrate addition and measured after 60 mins by luminescence based method relative to control
# MEASUREMENT SETUP: probe luciferin
Response key: Criterion met means inhibition at 1 h, 30 µM >= 80%; Criterion not met means inhibition at 1 h, 30 µM < 80%.

// inclusive: inhibition at 1 h, 30 µM at least 80%? input: CC(=O)NC[C@H]1CN(c2ccc(-c3ccc(/C=N/N4CCSCC4)nc3)c(F)c2)C(=O)O1 Criterion not met

---
// inclusive: inhibition at 1 h, 30 µM at least 80%? input: CC(=O)NC[C@H]1CN(c2ccc(-c3ccc(/C=N/N4CCSCC4)c(O)c3)c(F)c2)C(=O)O1 Criterion not met

// inclusive: inhibition at 1 h, 30 µM at least 80%? input: CC(=O)NC[C@H]1CN(c2ccc(-c3ccc(/C=N/N4CCS(=O)(=O)CC4)c(O)c3)c(F)c2)C(=O)O1 Criterion not met

// inclusive: inhibition at 1 h, 30 µM at least 80%? input: CC(=O)NC[C@H]1CN(c2ccc(-c3ccc(/C=N/N4CC[S+]([O-])CC4)c(O)c3)c(F)c2)C(=O)O1 Criterion met

// inclusive: inhibition at 1 h, 30 µM at least 80%? input: CC(=O)NC[C@H]1CN(c2ccc(-c3ccc(/C=N/N4CCS(=O)(=O)CC4)nc3)c(F)c2)C(=O)O1 Criterion not met
